Target: CA125 protein (Homo sapiens, UniProt Q8WXI7)
Construct: purchased R&D Systems Inc, MN, USA
Assay: Binding affinity Kd, synthesized peptide vs fluorescently labeled protein, Monolith NT.115
Settings: CA125 protein labeled RED-NHS, read-out: binding affinity Kd (dissociation constant)
No end group written: not given here.
property: Kd (nM)
Kindly answer with a numeric value in nM, unit omitted.

Tested on CA125 protein (Homo sapiens, UniProt Q8WXI7): HTHGAARVPDHR [SEQ ID NO: 1, HTHGAARVPDHR] . Observed Kd: 11.4
